# study target: Man(a1-3)[Man(a1-6)]Man(b1-4)GlcNAc(b1-4)GlcNAc
# assay remarks: glycan array binding signal (z-score within array); higher = stronger binding
# measurement setup: glycan notation: IUPAC condensed, linker removed
The full list was thinned out, with the strongest signals kept by preference.
The binders listed here are annotated with their glycan array binding signal (z-score).

Item SalT (Orysata sativa) (protein) MTLVKIGLWGGNGGSAQDISVPPKKLLGVTIYSSDAIRSIAFNYIGVDGQEYAIGPWGGGEGTSTEIKLGSSEHIKEISGTHGPVYDLADIVTYLKIVTSANNTYEAGVPNGKEFSIPLQDSGHVVGFFGRSGTLIDAIGIYVHPILEQKLISEEDLNSAVDHHHHHH has what recorded glycan array binding signal (z-score)?
4.94

Item RsaA-N-term (Caulobacter crescentus), P35828 (protein) MAYTTAQLVTAYTNANLGKAPDAATTLTLDAYATQTQTGGLSDAAALTNTLKLVNSTTAVAIQTYQFFTGVAPSAAGLDFLVDSTTNTNDLNDAYYSKFAQENRFINFSINLATGAGAGATAFAAAYTGVSYAQTVATAYDKIIGNAVATAAGVDVAAAVAFLSRQANIDYLTAFVRANTPFTAAADIDLAVKAALIGTILNAATVSGIGGYATATAAMINDLSDGALSTDNAAGVNLFTAYPSSGVSGSTLSLTTGTDTLTGTANNDTFVAGEVAGDGSGWSHPQFEKGG has what recorded glycan array binding signal (z-score)?
0.174

Item PpFlo2 (Pichia pastoris) (protein) MGSSHHHHHHSSGLVPRGSHMDDSGNGDNSDTAYGCDITTNAVDGFDATIYQYNANDLRLIRDPTFMSTGYLGRNVLNKISGVTVPGFNIWNPSSRTATVYGVKNVNYYNMVLELKGYFKADVSGDYKLTLSHIDDSSMLFFGKETAFKCCDAGSIPLNEAPTDYSLFTIKPSNQVNSEVISATQYLEAGKYYPVRIVFVNALERARFDFKLTIPSGAVLDDFQNYIYQFGDLDENSCHE has what recorded glycan array binding signal (z-score)?
0.074

Item FBG2 (Homo sapiens), Q9NRD1 (protein) MDAPHSKAALDSINELPENILLELFTHVPARQLLLNCRLVCSLWRDLIDLMTLWKRKCLREGFITKDWDQPVADWKIFYFLRSLHRNLLRNPCAEEDMFAWQIDFNGGDRWKVESLPGAHGTDFPDPKVKKYFVTSYEMCLKSQLVDLVAEGYWEELLDTFRPDIVVKDWFAARADCGCTYQLKVQLASADYFVLASFEPPPVTIQQWNNATWTEVSYTFSDYPRGVRYILFQHGGRDTQYWAGWYGPRVTNSSIVVSPKMTRNQASSEAQPGQKHGQEEAAQSPYRAVVQIFPPPVTIQQWNNATWTEVSYTFSDYPRGVRYILFQHGGRDTQYWAGWYGPRVTNSSIVVSPKMTRNQASSEAQPGQKHGQEEAAQSPYRAVVQI has what recorded glycan array binding signal (z-score)?
3.91

Item Tulipa lectin C-1 (Tulipa hybrid) (protein) MGMALVVALAVALASTVAGQQNVLLSGNTLANEESLSYGSVKFIMQNDCNLVLYGGGFQSNTASNGKKCTLTLNNNGHLIINDGLTGRVVWRNSNAQNPVGRYAAVLRPAPGTADVAIYGPAIWSTNDEFSYQESGVVPHKLGRETPNLPRMQNLLFSGQTLYGTDGMLSSNDGSTTFELSKCQLSLSLGNEVKWKVAPTVENGKENYCHVRLDHRGHLSLLNDDNVVLFRSIPTNGVEPPIGDYVLIVEKGAGYIYGPPIWNTYDNRRYKVASA has what recorded glycan array binding signal (z-score)?
4.98

Item Si Bti9 1b-V5-his (Solanum lycopersicum) (protein) MQCNRGCDLALASFYVWRGSNLTLISEMFSTSIADIVSYNNRDNIPNQDSVIAGTRINIPFRCDCLNDGEVLGHAFPYRVKSGDTYDLVARNYSDLTTAQWMMKFNSYPENNIPNTVNLSVVVNCSCGNSDVSKDFGLFVTYPVRAEDNLTSVASAANVSEDIIRRYNPAAVSILDIGQGIIYIPGRDRNGNFPPLPTSTDGLSGGAKKGGRADPAFLYKVVINSKLEGKPIPNPLLGLDSTRTGHHHHHH has what recorded glycan array binding signal (z-score)?
-0.362
